Biological target: ABL1 (64-515) (Homo sapiens (Human))
Sequence (P00519 64-515): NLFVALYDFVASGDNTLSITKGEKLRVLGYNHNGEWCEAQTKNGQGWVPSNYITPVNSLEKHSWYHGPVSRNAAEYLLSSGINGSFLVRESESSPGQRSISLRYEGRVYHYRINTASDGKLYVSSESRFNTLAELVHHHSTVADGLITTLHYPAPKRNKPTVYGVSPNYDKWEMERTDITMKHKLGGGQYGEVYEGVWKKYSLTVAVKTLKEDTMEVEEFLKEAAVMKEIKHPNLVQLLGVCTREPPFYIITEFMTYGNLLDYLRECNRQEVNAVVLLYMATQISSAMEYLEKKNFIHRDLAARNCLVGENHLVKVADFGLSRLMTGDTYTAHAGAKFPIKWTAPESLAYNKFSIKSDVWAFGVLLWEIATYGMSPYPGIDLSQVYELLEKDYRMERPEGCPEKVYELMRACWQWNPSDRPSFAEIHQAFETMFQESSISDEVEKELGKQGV
Test: Radio ABL1 (64-515) assay (radiometric filter-binding)
Type: biochemical
PROPERTY_MEASURED: pIC50
Would you please state pIC50, meaning minus log10 of the concentration in mol/L, as a bare number?

[Q] # query: pIC50 of entry NC12CC1CN(c1ncc(C(=O)Nc3ccc(OC(F)(F)Cl)cc3)cc1-c1cncnc1)C2 (stereo not shown)
[A] 8.08

[Q] # query: pIC50 of entry O=C(Nc1ccc(SC(F)(F)F)cc1)c1cnc(N2CC[C@H](CO)C2)c(-c2cncc(F)c2)c1
[A] 8.23

[Q] # query: pIC50 of entry CC(C)(O)c1cc(F)cc(-c2cc(C(=O)Nc3ccc(OC(F)(F)F)cc3)cnc2N2CC[C@@H](O)C2)c1
[A] 8.40

[Q] # query: pIC50 of entry CCN(CCO)c1ncc(C(=O)Nc2ccc(OC(F)(F)F)cc2)cc1-c1cncnc1
[A] 8.30
